So I've got a bunch of compounds here, and I need their TGI values.
Tested on: COLO 205 colon
Assay: NCI tumour cell line growth inhibition, 48 h
Answers are plain numbers, in µM.

# compound, quantitative readout
measured = [
    ("C=CCNC1=C2C[C@@H](C)C[C@@H](OC)[C@H](OC(=O)CCCCN)[C@H](C)/C=C(\\C)[C@@H](OC(N)=O)[C@H](OC)/C=C\\C=C(/C)C(=O)NC(=CC1=O)C2=O", 16.6),
    ("C[As](C)SC1OC(CO)C(O)C1O (centres undefined)", 10.8),
    ("CC(=O)OCc1cc(CCC(=O)NCCNc2c3ccccc3nc3ccccc23)cc(COC(C)=O)c1O[Si](C)(C)C(C)(C)C", 15.9),
    ("COc1ccc(/C=C(/C(=O)c2ccc(Cl)cc2)N2C=CC=CC2=C(C#N)C#N)cc1OC", 3.32),
    ("Cc1ccc(NC(=O)c2c(C)nc(=O)n3c2N(/N=C/c2ccc(Cl)cc2)CC3)cc1", 54.8),
]

Okay, here is my list. What is TGI for each of these?
1. C=C1CC(c2ccc(OCCCN3C(=O)c4ccccc4C3=O)c(OC)c2)OC1=O (centres undefined)
2. CC(=O)OC1Oc2ccccc2-c2oc(=O)c(-c3cc(=O)oc4cc(O)ccc34)cc21 (centres undefined)

1: 5.33; 2: 51.2

Okay, here is my list. What is TGI for each of these?
1. Clc1ccc2c(NCCCNc3nccc(Nc4ccc(Br)cc4)n3)ccnc2c1
2. O=Cc1ccc2c(c1)CC1(C2)Cc2ccc3c(c2C1)CCC3 (centres undefined)

[3.22, 43.7]

Okay, here is my list. What is TGI for each of these?
1. CNCCCn1cc(C2=C(c3cn(C)c4ccccc34)C(=O)NC2=O)c2ccccc21
2. CCN1CCN(c2ccc(Nc3cc(N(C)C(=O)Nc4c(Cl)c(OC)cc(OC)c4Cl)ncn3)cc2)CC1

[5.52, 3.47]

----------
So I've got a bunch of compounds here, and I need their TGI values.
System: MDA-N
Assay: NCI tumour cell line growth inhibition, 48 h
Numbers only, in µM.

# compound, unit of measurement, TGI
rows = [
    ("CC(=O)Oc1cccc2c(/C=N/NC(N)=S)ncc(C)c12", "µM", 21),
]

We next turn to a different compound, shown below.
Enter TGI (test system MDA-N) for CC1=C(C#N)C(C#N)(C#N)C(NN(C)C)C1 (stereo not given)
21.9

----------
System: HCC-2998 colon
Test: NCI tumour cell line growth inhibition, 48 h
outcome measure: TGI (nM)
One number for each entry, in nM.

# mol, unit of measurement, TGI
data = [
    ("Clc1ccc2c(NCCCNc3nccc(Nc4ccc(Br)cc4)n3)ccnc2c1", "nM", 2930),
]

Please list TGI recorded for the molecule NC(=NCCCOc1ccc(Cl)cc1)Nc1ccc(C(F)(F)F)cc1
2640

----------
Tested on: A498 renal
Assay: NCI tumour cell line growth inhibition, 48 h
So I've got a bunch of molecules here, and I need their TGI values.
Give bare numbers, in µM.

# molecule, target desc, quantitative readout
records = [
    ("Cc1cc(Br)cc(C)c1NC(=O)C(=O)C(C(=O)c1ccc2ccccc2c1)C1OC(=O)c2ccccc21 (centres undefined)", "A498 renal", 25.6),
    ("CC1=CC(/C=C(\\C)CCCc2ccoc2)C2(OC(=O)C(C)=C2O)[C@H]2C1CC[C@@H]2C (some centres undefined)", "A498 renal", 49.2),
    ("CC(C)(C)c1cc(C(P(=O)(c2ccccc2)c2ccccc2)P(=O)(c2ccccc2)c2ccccc2)cc(C(C)(C)C)c1O", "A498 renal", 5.08),
    ("CS(=O)(=O)Nc1ccc(N2Cc3cnc4ccc5[nH]ccc2c5c34)cc1", "A498 renal", 49.4),
    ("CC1=Nc2ccccc2C1C(Cc1ccccc1N)c1c(C)[nH]c2ccccc12 (centres undefined)", "A498 renal", 29.8),
]

Okay, here is my list. What is TGI for each of these?
1. Cc1ccc(S(=O)(=O)N/N=C/C(=C/c2ccc(Cl)cc2)CC(/C=N/NS(=O)(=O)c2ccc(C)cc2)=C\c2ccc(Cl)cc2)cc1
2. C=C(C=O)C1CCC2(C(=O)O)CCC3(C)C(CCC4C5(C)CCC(O)C(C)(C)C5CCC43C)C12 (centres undefined)

[29, 14.4]

Okay, here is my list. What is TGI for each of these?
1. O=C(OCc1ccc2cccc(O)c2n1)N1CCN(C(=O)c2cc3cc(F)ccc3[nH]2)CC1
2. C=CC(Br)(CBr)CCC(Cl)C(C)C (centres undefined)
3. C[As](C)SC1OC(CO)C(O)C1O (centres undefined)
4. O=C1N=c2ccccc2=C1c1c(O)[nH]c2ccccc12
5. C#Cc1cccc(Nc2ncnc3cc(OC)c(OCCCCCCC(=O)NO)cc23)c1
6. Cc1ccc(S(=O)(=O)Oc2cc(-c3ccccc3)nc3ccccc23)cc1
7. CCCCCCCCCCCCCCCCCCNc1ccn(C2OC(COP(=O)(O)OCC3OC(n4cc(C)c(=O)[nH]c4=O)CC3O)C(O)C2O)c(=O)n1 (centres undefined)

1. 3.25
2. 27
3. 3.62
4. 64.3
5. 0.662
6. 9.62
7. 58.3

Okay, here is my list. What is TGI for each of these?
1. Clc1ccc2c(NCCCNc3nccc(Nc4ccc(Br)cc4)n3)ccnc2c1
2. Oc1ccc2ccccc2c1/C=C/c1ccc2c(Br)cc(Br)c(O)c2n1
3. CC(=O)OCc1cc(CCC(=O)NCCNc2c3ccccc3nc3ccccc23)cc(COC(C)=O)c1O[Si](C)(C)C(C)(C)C

1: 2.48; 2: 18.6; 3: 6.1

Please list TGI recorded for the molecule Cc1ccc2c(n1)C(=O)c1[nH]c3ccccc3c1C2=O
2.76

----------
Test system: HOP-92 NSCLC
Test: NCI tumour cell line growth inhibition, 48 h; in the data active = GI50 below about 0.43 µM; inactive = the rest
Classes to choose from: active, inactive

# compound, target desc, assigned category
measured = [
    ("Cc1ccc(Cl)cc1Nc1nc(C(F)(F)F)ccc1C(=O)N1CCN(c2ccc(F)cc2)CC1", "HOP-92 NSCLC", "inactive"),
    ("Ic1ccc(Nc2nc3nonc3nc2Nc2ccc(I)cc2)cc1", "HOP-92 NSCLC", "active"),
    ("COc1ccc2c(c1)C(C)Cc1c(Cl)ncnc1N2C (stereo not given)", "HOP-92 NSCLC", "inactive"),
]

Tell me the recorded outcome of this test for Oc1ccc(Cl)cc1Cc1cc(Cl)cc(Cl)c1O .
inactive

Tell me the recorded outcome of this test for OCCN1CN(CCO)CN(c2nc(N3CN(CCO)CN(CCO)C3)nc(N3CN(CCO)CN(CCO)C3)n2)C1 .
inactive

----------
Tested on: MALME-3M melanoma
Assay: NCI tumour cell line growth inhibition, 48 h
So I've got a bunch of molecules here, and I need their TGI values.
Numbers only, in µM.

# molecule, outcome measure, quantitative readout
data = [
    ("COc1ccc(CC2c3cc(Oc4cc(CC5c6cc(OC)c(OC)cc6CCN5C)ccc4O)c(OC)cc3CCN2C)cc1 (stereo unspecified)", "TGI", 17.6),
]

Okay, here is my list. What is TGI for each of these?
1. COC(=O)C1=C(c2ccc3c(c2)OCO3)O[C@H](c2cc(OC)c(OC)c(OC)c2)[C@H]1COC(C)=O
2. Cc1ccc(C(SCC(N)C(=O)O)(c2ccccc2)c2ccc(C)cc2)cc1 (stereo unspecified)
3. C=C(F)C(=O)N1CCN(c2nc(OC[C@@H]3CCCN3C)nc3c2CCN(c2cccc4cccc(Cl)c24)C3)C[C@@H]1CC#N
4. O=[N+]([O-])c1cc2oc(COc3ccccc3)nc2cc1Cl
5. CC(SC(C)C(=O)N/N=C/c1cccc(Cl)c1)C(=O)N/N=C\c1cccc(Cl)c1 (stereo unspecified)
6. O=[N+]([O-])c1ccc(/C=N/n2c(CO)nc3ccccc32)o1
7. CS(=O)(=O)Nc1ccc(N2Cc3cnc4ccc5[nH]ccc2c5c34)cc1
8. O=c1c2ccccc2[se]n1-c1cccnc1

[92.5, 22.1, 2.98, 94.5, 35.7, 5.44, 19.1, 50.7]

Enter TGI (test system MALME-3M melanoma) for O=C(c1ccccc1)c1cc(Cl)ccc1OCCCCN1CCN(CCCCOc2ccc(Cl)cc2C(=O)c2ccccc2)CC1
3.77

----------
Tested on: IGROV1 ovarian
Assay: NCI tumour cell line growth inhibition, 48 h; in the data active = GI50 below about 0.43 µM; inactive = the rest
Classes to choose from: 1 (yes) (active), 0 (no) (inactive)

Use the examples below as a reference point.
# mol, assigned category
measured = [
    ("CC(C)c1ccc(Nc2ccc3c(OCCCN4CCN(C)CC4)cccc3n2)cc1", "0 (no)"),
    ("COc1ccc(N(C)c2ncnc3occ(C)c23)cc1", "1 (yes)"),
    ("C/C(=C\\CCc1ccoc1)CC/C=C(\\C)CCCC1=CC(=O)OC1", "0 (no)"),
]

Attention now turns to another entry.
Tell me the recorded outcome of this test for O=[N+]([O-])c1ccc(C=C2C(Cl)=C(Cl)C(Cl)=C2Cl)cc1 .
0 (no)
